The measured values listed here are drawn from patent US7749316B2.

experiment: Surface tension of water containing nonionic organic compound; assay type: physicochemical; conditions: 0.001 g of compound in 100 g of water, 25° C.
Cut-off 60 mN/m on Surface tension of water containing nonionic organic compound: below means TRUE, at or above means FALSE.

1) CCCCCCC(O)CO (stereo not shown)	FALSE
2) CCCCCCCCCC(=O)OCC(O)CO (stereo not shown) [decanoic acid monoglyceride]	FALSE
3) CCCCCCCCCCC(O)CO (stereo not shown)	TRUE
4) CCCCC(CC)COCC(O)CO (stereo not shown)	FALSE
5) CCCCCCCCCCCC(=O)OCC(O)CO (stereo not shown) [PO-2, Dodecanoic acid monoglyceride]	FALSE

Identify whether the molecule CCCCCCCCC(O)CO (stereo not shown) records Surface tension of water containing nonionic organic compound below 60 mN/m.
TRUE

Identify whether the molecule CC(C)CCCCCCCOCC(O)CO (stereo not shown) records Surface tension of water containing nonionic organic compound below 60 mN/m.
TRUE

----------
Below, each entry is listed alongside its reported solubility in 100 g of water.
assay: Solubility of nonionic organic compound in water; conditions: in 100 g of water as measured at 25° C.
Give just the numeric value; g need not be written.

Solved cases (5 shown):
1. CC(C)CCCCCCCOCC(O)CO (stereo not drawn)	0.05
2. CCCCCCCCCCCC(=O)OCC(O)CO (stereo not drawn) [PO-2, Dodecanoic acid monoglyceride]	0.005
3. CCCCCCC(O)CO (stereo not drawn)	0.20
4. CCCCC(CC)COCC(O)CO (stereo not drawn)	0.15
5. CCCCCCCCCCC(O)CO (stereo not drawn)	0.001

get_value(item= CCCCCCCCC(O)CO (stereo not drawn) , readout=solubility in 100 g of water) returns 0.055
